- Tested on: Bacillus subtilis ATCC 23857
- protocolNotes: Antibacterial screen at 200 μg/mL (cell density vs control)
- Format: cell-based
- conditionParameters: peptide 200 μg/mL, CAMHB, 5 × 10^5 CFU/mL, 37°C, 12 h, OD600; control (no AMP) = 1; three biological replicates
Binarize cell density relative to control, B. subtilis ATCC 23857 at 0.3; below is Y, at or above is N.

Please let me know if MGAVCRMGSLPCLIPRGAIRLG [Cand-198, chemically synthesized candidate AMP predicted from marine biofilm bacteria] shows cell density relative to control, B. subtilis ATCC 23857 below 0.3. N

Please let me know if MCTSKKKVWRCVAPS [Cand-33, chemically synthesized candidate AMP predicted from marine biofilm bacteria] shows cell density relative to control, B. subtilis ATCC 23857 below 0.3. N

Please let me know if MSKIKAKIGHLR [Cand-98, chemically synthesized candidate AMP predicted from marine biofilm bacteria] shows cell density relative to control, B. subtilis ATCC 23857 below 0.3. N

Please let me know if MKALRRFLSCKVCSHALN [Cand-160, chemically synthesized candidate AMP predicted from marine biofilm bacteria] shows cell density relative to control, B. subtilis ATCC 23857 below 0.3. Y

Please let me know if MRVGMCRIGGRL [Cand-79, chemically synthesized candidate AMP predicted from marine biofilm bacteria] shows cell density relative to control, B. subtilis ATCC 23857 below 0.3. N

Please let me know if MGTYPKVGNSHWKR [Cand-69, chemically synthesized candidate AMP predicted from marine biofilm bacteria] shows cell density relative to control, B. subtilis ATCC 23857 below 0.3. N

Please let me know if MPKVKTKVCHRR [Cand-26, chemically synthesized candidate AMP predicted from marine biofilm bacteria] shows cell density relative to control, B. subtilis ATCC 23857 below 0.3. N

Please let me know if MCRFKCKVRTTITRPVCCWLIFM [Cand-168, chemically synthesized candidate AMP predicted from marine biofilm bacteria] shows cell density relative to control, B. subtilis ATCC 23857 below 0.3. Y

Please let me know if MLTTIAKSTKKCKPKSCCACSLYRC [Cand-216, chemically synthesized candidate AMP predicted from marine biofilm bacteria] shows cell density relative to control, B. subtilis ATCC 23857 below 0.3. N

Please let me know if MRPRLRKRLLR [Cand-187, chemically synthesized candidate AMP predicted from marine biofilm bacteria] shows cell density relative to control, B. subtilis ATCC 23857 below 0.3. Y

Please let me know if MSCDLQKVRGCLPRLIVHK [Cand-142, chemically synthesized candidate AMP predicted from marine biofilm bacteria] shows cell density relative to control, B. subtilis ATCC 23857 below 0.3. N

Please let me know if MICWCAKICCSCSAFRRWWKRNGTAC [Cand-57, chemically synthesized candidate AMP predicted from marine biofilm bacteria] shows cell density relative to control, B. subtilis ATCC 23857 below 0.3. Y

Please let me know if MIYICTRITKCKLHGGCSSVG [Cand-155, chemically synthesized candidate AMP predicted from marine biofilm bacteria] shows cell density relative to control, B. subtilis ATCC 23857 below 0.3. N

Please let me know if MWAVARGRR [Cand-195, chemically synthesized candidate AMP predicted from marine biofilm bacteria] shows cell density relative to control, B. subtilis ATCC 23857 below 0.3. N

Please let me know if MFKFFCCIFYMCRIKTH [Cand-18, chemically synthesized candidate AMP predicted from marine biofilm bacteria] shows cell density relative to control, B. subtilis ATCC 23857 below 0.3. Y

Please let me know if MWWSKSIHQASFTRYRSYCRGCCTFSIRSCRYKRRII [Cand-180, chemically synthesized candidate AMP predicted from marine biofilm bacteria] shows cell density relative to control, B. subtilis ATCC 23857 below 0.3. Y

Please let me know if MKGLSKCVTHVVTAA [Cand-115, chemically synthesized candidate AMP predicted from marine biofilm bacteria] shows cell density relative to control, B. subtilis ATCC 23857 below 0.3. N

Please let me know if MRHNMCRIGGRL [Cand-203, chemically synthesized candidate AMP predicted from marine biofilm bacteria] shows cell density relative to control, B. subtilis ATCC 23857 below 0.3. N

Please let me know if MPKRPWRACSSIG [Cand-212, chemically synthesized candidate AMP predicted from marine biofilm bacteria] shows cell density relative to control, B. subtilis ATCC 23857 below 0.3. N

Please let me know if MRKGCKLIPCICDVNCRRRTG [Cand-8, chemically synthesized candidate AMP predicted from marine biofilm bacteria] shows cell density relative to control, B. subtilis ATCC 23857 below 0.3. Y

Please let me know if MRPSMCRIGGRL [Cand-38, chemically synthesized candidate AMP predicted from marine biofilm bacteria] shows cell density relative to control, B. subtilis ATCC 23857 below 0.3. N

Please let me know if MCTRSCRPNLVKC [Cand-47, chemically synthesized candidate AMP predicted from marine biofilm bacteria] shows cell density relative to control, B. subtilis ATCC 23857 below 0.3. N

Please let me know if MLKLSWNLCRPIGRRW [Cand-186, chemically synthesized candidate AMP predicted from marine biofilm bacteria] shows cell density relative to control, B. subtilis ATCC 23857 below 0.3. Y

Please let me know if MTWPSRSRMWRTC [Cand-129, chemically synthesized candidate AMP predicted from marine biofilm bacteria] shows cell density relative to control, B. subtilis ATCC 23857 below 0.3. Y

###

Hi there, I'd appreciate the recorded cell density relative to control, S. bongori ATCC 43975 for every entry that follows.
- System: Salmonella bongori ATCC 43975
- protocolNotes: Antibacterial screen at 200 μg/mL (cell density vs control)
- Format: cell-based
- conditionParameters: peptide 200 μg/mL, CAMHB, 5 × 10^5 CFU/mL, 37°C, 12 h, OD600; control (no AMP) = 1; three biological replicates
// return just the number, without any unit appended

State recorded cell density relative to control, S. bongori ATCC 43975 with Salmonella bongori ATCC 43975, entry MCRFKCKVRTTITRPVCCWLIFM [Cand-168, chemically synthesized candidate AMP predicted from marine biofilm bacteria] , no comment. 0.482

State recorded cell density relative to control, S. bongori ATCC 43975 with Salmonella bongori ATCC 43975, entry MGRISCMWSSSYKCRFNCYF [Cand-20, chemically synthesized candidate AMP predicted from marine biofilm bacteria] , no comment. 1

State recorded cell density relative to control, S. bongori ATCC 43975 with Salmonella bongori ATCC 43975, entry MWWSKSIHQASFTRYRSYCRGCCTFSIRSCRYKRRII [Cand-180, chemically synthesized candidate AMP predicted from marine biofilm bacteria] , no comment. 0.025

###

Hi there, I'd appreciate the recorded cell density relative to control, S. bongori ATCC 43975 for every entry that follows.
- System: Salmonella bongori ATCC 43975
- protocolNotes: Antibacterial screen at 200 μg/mL (cell density vs control)
- Assay type: cell-based
- conditionParameters: peptide 200 μg/mL, CAMHB, 5 × 10^5 CFU/mL, 37°C, 12 h, OD600; control (no AMP) = 1; three biological replicates
// return just the number, without any unit appended

State recorded cell density relative to control, S. bongori ATCC 43975 with Salmonella bongori ATCC 43975, entry MRPCMCRIGGGH [Cand-13, chemically synthesized candidate AMP predicted from marine biofilm bacteria] , no comment. 0.926

State recorded cell density relative to control, S. bongori ATCC 43975 with Salmonella bongori ATCC 43975, entry MWKLPKWRNGRRRGFKIPRW [Cand-109, chemically synthesized candidate AMP predicted from marine biofilm bacteria] , no comment. 0.019

State recorded cell density relative to control, S. bongori ATCC 43975 with Salmonella bongori ATCC 43975, entry MCTSKKKVWRCVAPS [Cand-33, chemically synthesized candidate AMP predicted from marine biofilm bacteria] , no comment. 1

State recorded cell density relative to control, S. bongori ATCC 43975 with Salmonella bongori ATCC 43975, entry MRVGMCRIGGRL [Cand-79, chemically synthesized candidate AMP predicted from marine biofilm bacteria] , no comment. 0.975

State recorded cell density relative to control, S. bongori ATCC 43975 with Salmonella bongori ATCC 43975, entry MRKGCKLIPCICDVNCRRRTG [Cand-8, chemically synthesized candidate AMP predicted from marine biofilm bacteria] , no comment. 0

State recorded cell density relative to control, S. bongori ATCC 43975 with Salmonella bongori ATCC 43975, entry MRRFCCCRCSCCCWPS [Cand-25, chemically synthesized candidate AMP predicted from marine biofilm bacteria] , no comment. 0.847

State recorded cell density relative to control, S. bongori ATCC 43975 with Salmonella bongori ATCC 43975, entry MWTIYSGIKRSLHYCRRRGYYCSRYGYYS [Cand-43, chemically synthesized candidate AMP predicted from marine biofilm bacteria] , no comment. 0

State recorded cell density relative to control, S. bongori ATCC 43975 with Salmonella bongori ATCC 43975, entry MWAVARGRR [Cand-195, chemically synthesized candidate AMP predicted from marine biofilm bacteria] , no comment. 1

State recorded cell density relative to control, S. bongori ATCC 43975 with Salmonella bongori ATCC 43975, entry MGTYPKVGNSHWKR [Cand-69, chemically synthesized candidate AMP predicted from marine biofilm bacteria] , no comment. 0.886

State recorded cell density relative to control, S. bongori ATCC 43975 with Salmonella bongori ATCC 43975, entry MRPSMCRIGGRL [Cand-38, chemically synthesized candidate AMP predicted from marine biofilm bacteria] , no comment. 1

State recorded cell density relative to control, S. bongori ATCC 43975 with Salmonella bongori ATCC 43975, entry MLTTIAKSTKKCKPKSCCACSLYRC [Cand-216, chemically synthesized candidate AMP predicted from marine biofilm bacteria] , no comment. 0.556

State recorded cell density relative to control, S. bongori ATCC 43975 with Salmonella bongori ATCC 43975, entry MCCVGRGVSFLRTRKCFIKS [Cand-161, chemically synthesized candidate AMP predicted from marine biofilm bacteria] , no comment. 0.12

State recorded cell density relative to control, S. bongori ATCC 43975 with Salmonella bongori ATCC 43975, entry MRPRLRKRLLR [Cand-187, chemically synthesized candidate AMP predicted from marine biofilm bacteria] , no comment. 0.256

State recorded cell density relative to control, S. bongori ATCC 43975 with Salmonella bongori ATCC 43975, entry MCALKWFCKSLIRALNKAT [Cand-68, chemically synthesized candidate AMP predicted from marine biofilm bacteria] , no comment. 0.024

State recorded cell density relative to control, S. bongori ATCC 43975 with Salmonella bongori ATCC 43975, entry MSPRICSVISCLMKLRC [Cand-11, chemically synthesized candidate AMP predicted from marine biofilm bacteria] , no comment. 0.522

State recorded cell density relative to control, S. bongori ATCC 43975 with Salmonella bongori ATCC 43975, entry MKRLKKCVLSSLSI [Cand-126, chemically synthesized candidate AMP predicted from marine biofilm bacteria] , no comment. 0.299

State recorded cell density relative to control, S. bongori ATCC 43975 with Salmonella bongori ATCC 43975, entry MRHNMCRIGGRL [Cand-203, chemically synthesized candidate AMP predicted from marine biofilm bacteria] , no comment. 0.825

State recorded cell density relative to control, S. bongori ATCC 43975 with Salmonella bongori ATCC 43975, entry MGAVCRMGSLPCLIPRGAIRLG [Cand-198, chemically synthesized candidate AMP predicted from marine biofilm bacteria] , no comment. 0.827
